Test system: CCRF-CEM
Experiment: NCI tumour cell line growth inhibition, 48 h
The source made the active and inactive calls. Rule as the data show it: active = GI50 up to about 1.1 µM and inactive = higher.
Outcomes: true for active, false for inactive

{"columns": ["molecule", "assigned.class"],
 "data": [
  ["CC1=NN(C(=O)Cc2ccccc2)C(=O)/C1=C\\C=C\\c1ccccc1", "false"],
  ["COc1cc(NC(C)=O)ccc1C(=O)N/N=C/c1ccco1", "false"],
  ["C[C@]12CCC3c4ccc(OC(=O)c5ccccc5)cc4CC[C@H]3C1CC[C@@H]2OC(=O)C12OC1CCC2=O (stereo partly specified)", "true"],
  ["Cc1nc(N)nn1C1OCC(O)C(O)C1O (stereo unspecified)", "false"],
  ["CC1CC(=O)C2CC(CO)=CCCC2C1(C)CC/C(=C/CO)CO (stereo unspecified)", "false"],
  ["C1CCN2CC3CONC3C2C1 (stereo unspecified)", "false"]
]}

###

Tested on: SW-620
Experiment: NCI tumour cell line growth inhibition, 48 h
Calls of active or inactive are those of the source. Rule as the data show it: active = GI50 up to about 1.1 µM and inactive = higher.
Recorded GI50 by entry

{"columns": ["molecule", "GI50"],
 "data": [
  ["COCCOCCOCCOc1cccc2c1C(=O)c1cccc(OCCOCCOCCOC)c1C2=O", "> 100 µM (inactive)"],
  ["CCC1=NC(CO)[C@H](c2ccccc2)O1 (stereo not given in full)", "> 100 µM (inactive)"],
  ["O=S1(=O)OCCOS(=O)(=O)C1C1c2ccccc2-c2ccccc21", "26.9 µM (inactive)"],
  ["CC(C)=CCC[C@@H](C)C1=C(N)C(=O)C(C)=C(O)C1=O", "41.3 µM (inactive)"],
  ["CCCCN(CCCC)C(=O)C(=O)CC(=O)/C=C/c1ccccc1", "> 100 µM (inactive)"],
  ["CCOc1ccc2nc(-c3ccc(O)cc3)sc2c1", "> 100 µM (inactive)"],
  ["C=C1C[C@]23C[C@@]1(O)CC[C@H]2[C@@]12C=C[C@H](O)[C@@](C)(C(=O)O1)[C@H]2[C@@H]3C(=O)O", "> 100 µM (inactive)"],
  ["COc1cccc(-c2nccc3c(OCc4ccccc4)c(OC)c(OC)cc23)c1", "> 100 µM (inactive)"],
  ["NC(=O)c1csc(CCCCCCc2nc(C(N)=O)cs2)n1", "> 40.3 µM (inactive)"],
  ["CCC(C)NC1=NCC(C)S1 (stereo not given)", "> 100 µM (inactive)"],
  ["CON1C(=O)C2(CCCCC2)C(=O)C12C=CC(C)CC2 (stereo not given)", "> 100 µM (inactive)"],
  ["[N-]=[N+]=NC(c1cn(C2CC(O)C(CO)O2)c(=O)[nH]c1=O)C(Br)I (stereo not given)", "> 100 µM (inactive)"],
  ["O=c1c2cc(-c3ccccc3)sc2nc2n1N=C(c1ccccc1)CS2", "69.5 µM (inactive)"],
  ["COC(=O)C1=C(C)N(NC(N)=O)C2(N)N(NC(N)=O)C(C)=C(C(=O)OC)C12C#N (stereo not given)", "> 100 µM (inactive)"],
  ["OCCc1ccsc1-c1sc(-c2cc(CCO)c(-c3sc(-c4cc(CCO)c(-c5sccc5CCO)s4)cc3CCO)s2)cc1CCO", "1.31 µM (inactive)"],
  ["CCCCCCCCCCCCCCCCCCOP(=O)([O-])OC1CC[N+](C)(C)CC1", "8.05 µM (inactive)"],
  ["NC1CNC(=O)c2c(Cl)sc(Cl)c21 (stereo not given)", "> 100 µM (inactive)"],
  ["CCOC(=O)CSc1cc[nH]c(=O)n1", "> 100 µM (inactive)"],
  ["CC(=O)C1(c2ccccc2)CCCN(C)CC1 (stereo not given)", "> 100 µM (inactive)"],
  ["CCCCNC(=O)Nc1c(C(N)=O)c2n(c1C(=O)OCC)CCCCC2", "> 100 µM (inactive)"],
  ["Cn1c(=O)cc(NNc2ccc(Cl)c(Cl)c2)[nH]c1=O", "6.1 µM (inactive)"],
  ["CC(=O)OC1COC(n2c(=S)n(-c3ccccc3)c(=O)c3cc(Br)ccc32)C(OC(C)=O)C1OC(C)=O (stereo not given)", "> 100 µM (inactive)"],
  ["CCCCCCCCCCCC(=O)OCC(O)CO (stereo not given) [GLYCEROL MONOLAURATE]", "> 100 µM (inactive)"],
  ["COc1cc(/C=C2\\N=C(c3ccccc3)N(c3ccc(S(=O)(=O)Nc4nccs4)cc3)C2=O)ccc1O", "77.6 µM (inactive)"],
  ["CC1(C(=O)O)CCC2(C)CCC3(C)C(=CC(=O)C4C5(C)CCC(O)C(C)(C)C5CCC43C)C2C1 (stereo not given)", "37.5 µM (inactive)"],
  ["C1CCN(C2OC3C(COC3N3CCCCC3)OC2OC2CCO[C@@H]2N2CCCCC2)CC1 (stereo not given in full)", "81.3 µM (inactive)"],
  ["CC1NOC(=O)C1/N=N/c1ccccc1Cl (stereo not given)", "> 100 µM (inactive)"],
  ["O=C1c2cc3c(cc2[C@@H]2C(O)[C@H]4O[C@H]4C4CCN1C42)OCO3 (stereo not given in full)", "> 37.5 µM (inactive)"],
  ["Cc1c(-c2ccccc2)c(C#N)c2nnn(-c3ccccc3)c(=O)n12", "> 100 µM (inactive)"],
  ["COc1cc2c(cc1OC)CC1c3cc(OC)c(OC)cc3CCN1CC2 (stereo not given)", "84.1 µM (inactive)"],
  ["NCCCC[C@H](N)C(=O)Nc1ccc(-c2nc3ccccc3s2)cc1Cl", "11.5 µM (inactive)"],
  ["COc1ccc(C2=N/C(=C\\c3ccccc3)C(=O)O2)cc1", "> 100 µM (inactive)"],
  ["Cc1cc(S(=O)(=O)NC2=Nc3ccc(Cl)cc3C(c3ccccc3)N2)c(S)cc1Cl (stereo not given)", "> 100 µM (inactive)"],
  ["Cc1cc2nc3c(N)nn(CCN(C)C)c3nc2cc1C", "38.7 µM (inactive)"],
  ["CNC(C)Cc1ccc(O)cc1 (stereo not given)", "> 100 µM (inactive)"],
  ["NCCCN1CCN(CC(=O)O)CCN(CCCN)CCN(CC(=O)O)CC1", "9.91 µM (inactive)"],
  ["Oc1cccc2nc3cc(CN4CCOCC4)c(CN4CCOCC4)cc3nc12", "57.3 µM (inactive)"],
  ["N#CCCN(CCNc1ccccc1)C(=O)Nc1ccc(NC(=O)N(CCC#N)CCNc2ccccc2)cc1", "> 100 µM (inactive)"],
  ["Cc1ccc(S(=O)(=O)N2CCN(S(=O)(=O)c3ccc(C)cc3)CCN(S(=O)(=O)c3ccc(C)cc3)Cc3cc(C#N)c(C#N)cc3CN(S(=O)(=O)c3ccc(C)cc3)CC2)cc1", "> 100 µM (inactive)"],
  ["C/C(=C\\c1ccccc1)C(O)C(=O)c1nc2ccc(Cl)cc2nc1O (stereo not given)", "> 100 µM (inactive)"]
]}

###

Recorded GI50 by entry
Tested on: SK-OV-3
Assay: NCI tumour cell line growth inhibition, 48 h
The source made the active and inactive calls. Cut-off read from the data, not from the text of the source: active = GI50 up to about 1.1 µM and inactive = higher.
quantity.kind: GI50

{"columns": ["molecule", "reading"],
 "data": [
  ["CCNC(=O)Nc1cccc(NC(=O)NCC)n1", "> 100 µM (inactive)"],
  ["COc1ccccc1N1CCN(CCCN2C(C(=O)c3ccccc3)=C(O)c3c(C)cc(C)nc3S2(=O)=O)CC1", "85.9 µM (inactive)"],
  ["COc1nn(Cc2ccccn2)c2ccc([N+](=O)[O-])cc12", "> 100 µM (inactive)"],
  ["OC1(c2ccc(Cl)cc2)c2c(ccc3c2OCO3)C2=NCCN21 (stereo unspecified)", "68.1 µM (inactive)"],
  ["COP(=O)(O)C(N)Cc1c[nH]c2ccccc12 (stereo unspecified)", "> 100 µM (inactive)"],
  ["O=C1CCCn2c(nc3ccccc32)N1", "> 100 µM (inactive)"],
  ["COc1cccc(N2C(=O)CSC2c2c[nH]c3ccccc23)c1 (stereo unspecified)", "> 100 µM (inactive)"],
  ["CO/C(=N\\N=C(/c1ccccc1)C(F)(F)F)c1ccncc1", "46.3 µM (inactive)"],
  ["COc1ccc(C2=C(OC(=O)N(C)C)c3cccn3-c3cc(Cl)ccc3S2)cc1", "> 10 µM (inactive)"],
  ["CCOC1=NC(C(F)(F)F)(C(F)(F)F)N=C(/N=C(/N)N(C)C(C(C)C)P(=O)(OC(C)C)OC(C)C)O1 (stereo unspecified)", "> 100 µM (inactive)"],
  ["Cc1c(-c2ccccc2)c(C#N)c2nnn(-c3ccccc3)c(=O)n12", "> 100 µM (inactive)"],
  ["Cc1c[n+]2c3ccccc3c3ccccc3c2s1.[O-][Cl+3]([O-])([O-])[O-]", "10.7 µM (inactive)"],
  ["O=C1Oc2ccccc2C(=O)/C1=C1/C=C(c2ccccc2)SS1", "> 100 µM (inactive)"],
  ["CC1=NC(C)(C)[N+]([O-])=C1", "> 10 µM (inactive)"],
  ["COc1ccc2cc1Oc1ccc(cc1)C[C@@H]1c3cc(c(OC)cc3CCN1C)Oc1c(OC)c(OC)cc3c1[C@H](C2)N(C)CC3 [ISOTETRANDRINE]", "40.2 µM (inactive)"],
  ["CCCCCCCCCCCCCCN [TETRADECYLAMINE]", "> 100 µM (inactive)"]
]}
